Can you tell me pIC50 for the items I'm about to list?
molecular target: c-Met (cytoplasmic domain) (Homo sapiens, UniProt P08581); construct: 10 ng/mL c-Met (cytoplasmic domain, Invitrogen Corporation #PV3143); purchased Invitrogen Corporation PV3143; test: c-Met Kinase Assay (same methods as for ALK, with modifications); format: biochemical; conditions: c-Met kinase inhibition, 1 μM ATP; read-out: cMet Activity
Sequence (P08581 956-1390 limits assumed): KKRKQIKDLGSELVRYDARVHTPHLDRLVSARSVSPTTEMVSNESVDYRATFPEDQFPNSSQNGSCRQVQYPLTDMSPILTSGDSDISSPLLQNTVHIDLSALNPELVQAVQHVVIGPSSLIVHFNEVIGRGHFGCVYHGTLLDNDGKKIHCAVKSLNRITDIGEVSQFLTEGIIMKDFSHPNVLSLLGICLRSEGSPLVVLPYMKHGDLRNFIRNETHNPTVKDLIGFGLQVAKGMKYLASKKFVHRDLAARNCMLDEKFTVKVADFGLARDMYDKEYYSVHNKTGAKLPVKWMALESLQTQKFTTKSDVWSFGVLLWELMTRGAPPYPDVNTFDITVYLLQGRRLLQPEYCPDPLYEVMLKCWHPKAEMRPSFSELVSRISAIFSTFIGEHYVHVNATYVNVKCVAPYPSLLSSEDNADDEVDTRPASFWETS
pIC50: −log10 of the molar value.

Lookup: Consider the molecule COc1cc2c(cc1Nc1ncc(Cl)c(N[C@H]3[C@@H](C(N)=O)[C@@H]4C=C[C@H]3C4)n1)CCN(C[C@@H](C)O)CC2 [Example 1559] . State its measured pIC50.
Found: < 5.00

Lookup: Consider the molecule CNC(=O)c1cccc(F)c1Nc1nc(Nc2ccc3c(c2)N(C(=O)CN2C(=O)c4ccccc4C2=O)CCCC3(C)C)ncc1Cl [Example 1616] . State its measured pIC50.
Found: 6.00 to 7.00

Lookup: Consider the molecule COc1cc2c(cc1Nc1ncc(C(F)(F)F)c(Nc3ccc(N4CCOCC4)cc3OC)n1)CCOC(=O)N2C [Example 1514] . State its measured pIC50.
Found: < 5.00

Lookup: Consider the molecule CCN1CC(=O)Nc2cc(Nc3ncc(Cl)c(Nc4ccc(OC)cc4-n4cccn4)n3)c(OC)cc2C1 [Example 1662] . State its measured pIC50.
Found: < 5.00

Lookup: Consider the molecule CNC(=O)c1ccc2c(c1Nc1nc(Nc3ccc4c(c3)NC(=O)CCC4)ncc1Cl)OCO2 [Example 1482] . State its measured pIC50.
Found: 5.00 to 6.00

Lookup: Consider the molecule COc1cc2c(cc1Nc1ncc(Cl)c(NC3C4C=CC(C4)C3C(N)=O)n1)NC(=O)CN(Cc1ccccc1)C2 (centres unmarked) [Example 1652] . State its measured pIC50.
Found: < 5.00

Lookup: Consider the molecule CNC(=O)c1cccc(F)c1Nc1nc(Nc2ccc3c(c2)-n2ccnc2CCC3)ncc1Cl [Example 1837] . State its measured pIC50.
Found: > 7.00

Lookup: Consider the molecule CNC(=O)c1cc(F)ccc1Nc1nc(Nc2ccc3c(c2)-n2ccnc2CCC3)ncc1Cl [Example 1841] . State its measured pIC50.
Found: 6.00 to 7.00
